tested on: SW-620; experiment: NCI tumour cell line growth inhibition, 48 h
Activity calls are given as the source filed them. Cut-off read from the data, not from the text of the source: active = GI50 up to about 1.1 µM and inactive = higher.
Outcomes: active, inactive

compound	assignedLabel
c1cc(-c2ccc(-c3ccc(C4=NCCCN4)cc3)o2)ccc1C1=NCCCN1	inactive
COC(=O)c1nn(C(=N)c2ccc(Cl)cc2)c2c1CCCCC2	inactive
COc1ccc(Cc2c3cc(OC)c(OC)cc3cc[n+]2C)cc1	inactive
Nc1nc(N)c(-c2cccc(C(F)(F)F)c2)c(Cc2cccc(C(F)(F)F)c2)n1	inactive
COc1nc2ncc([C@@H](OC(C)=O)[C@@H](COC(C)=O)OC(C)=O)nc2c(=O)n1C	inactive
Cc1nn(C(=O)c2ccc(Cl)cc2)c2c1C(c1ccc([N+](=O)[O-])cc1)SC(=N)N2 (stereo not given)	inactive
C[C@@H]1Nc2cc(NC(=O)OCCF)nc(N)c2N=C1c1ccccc1	active
CCC(=S)N(C)O	inactive
O=C(N/N=C(COc1ccc(Cl)cc1)\N=C\c1ccncc1)c1ccncc1	inactive
CC(C)N(C(=O)C12C3C4C5(C(=O)O)C(C1C35I)C42C(=O)O)C(C)C (stereo not given)	inactive
N#CC(C#N)=C1/C(=C/C=C/C=C/C=C/c2ccc(N3CCCCC3)s2)S(=O)(=O)c2ccccc21	inactive
CC[C@@]1(OP(=O)(O)O)C(=O)OCc2c1cc1n(c2=O)Cc2cc3ccccc3nc2-1	active
COC(=O)C1=C(OC(=O)/C(=C/c2ccccc2)c2ccc(OC)cc2)C(C(=O)OC)[C@@]2(O)[C@@H](C(=O)OC)[C@H](C)C[C@@H]1[C@@H]2C(=O)OC (stereo not given in full)	inactive
N#Cc1c(-c2ccccc2)c(/C=N/c2ccc(F)cc2)c(=O)n2c1[nH]c1ccccc12	inactive
Cc1ccc(Cc2nnc(S)[nH]2)cc1	inactive
C/C(=N\NC(=S)Nc1ccc([N+](=O)[O-])cc1)c1nc2cccnc2[nH]1	active
O=C(O)[C@@H](NS(=O)(=O)c1ccc(F)cc1)c1ccccc1	inactive
Cc1cccc(C(=O)c2cccc3ccccc23)c1C(=O)O	inactive
CC12C(=CC(=O)CC1SCCS(=O)(=O)O)C(C#N)=C(N)N2c1ccc(Cl)c(Cl)c1 (stereo not given)	inactive
O=C(/C=C/c1ccc2c(c1)OCO2)CC(=O)/C=C/c1ccc2c(c1)OCO2	inactive

====

system: HOP-92; assay: NCI tumour cell line growth inhibition, 48 h
The source made the active and inactive calls. Rule as the data show it: active = GI50 up to about 1.1 µM and inactive = higher.
Outcomes: true (1) = active, false (0) = inactive

smilesData	assignedLabel
O=C1NC(=O)/C(=C\c2ccncc2)N1	false (0)
O=C(c1c(F)c(F)c(F)c(F)c1F)n1c(O)nc2ccccc21	false (0)
S=C(N/N=C/c1ccccn1)N1CC2CCC(CC2)C1	true (1)
O=C(O)c1ccc(C=C2Sc3ccccc3S2)cc1	false (0)
Cc1cc2c(cc1C)[n+]([O-])c(C(=O)/C=C/c1ccc3c(c1)OCO3)c(C)[n+]2[O-]	false (0)
COc1nc2ncc([C@@H](OC(C)=O)[C@@H](COC(C)=O)OC(C)=O)nc2c(=O)n1C	false (0)

====

system: SR; test: NCI tumour cell line growth inhibition, 48 h
Active and inactive are the calls of the source. Rule as the data show it: active = GI50 up to about 1.1 µM and inactive = higher.
GI50 values by entry

compound	GI50
CC(C)N(C(=O)C12C3C4C5(C(=O)O)C(C1C35I)C42C(=O)O)C(C)C (stereo not given)	> 100 µM (inactive)
CC(/C=C/c1ccccc1)=N\NC(=S)N/N=C(C)/C=C/c1ccccc1	5.93 µM (inactive)
O=C(/C=C/c1ccc2c(c1)OCO2)CC(=O)/C=C/c1ccc2c(c1)OCO2	39.1 µM (inactive)
Cc1nc2c(O)cccc2c(=O)[nH]1	114 µM (inactive)
CC[C@@]1(OP(=O)(O)O)C(=O)OCc2c1cc1n(c2=O)Cc2cc3ccccc3nc2-1	0.00274 µM (active)
